TARGET_SYSTEM: ~100 representative kinases (Homo sapiens)
Construct: Recombinant protein kinase domains with a concentration of 2 μM
Sequence (Q13188 whole entry, the tested form may be a part): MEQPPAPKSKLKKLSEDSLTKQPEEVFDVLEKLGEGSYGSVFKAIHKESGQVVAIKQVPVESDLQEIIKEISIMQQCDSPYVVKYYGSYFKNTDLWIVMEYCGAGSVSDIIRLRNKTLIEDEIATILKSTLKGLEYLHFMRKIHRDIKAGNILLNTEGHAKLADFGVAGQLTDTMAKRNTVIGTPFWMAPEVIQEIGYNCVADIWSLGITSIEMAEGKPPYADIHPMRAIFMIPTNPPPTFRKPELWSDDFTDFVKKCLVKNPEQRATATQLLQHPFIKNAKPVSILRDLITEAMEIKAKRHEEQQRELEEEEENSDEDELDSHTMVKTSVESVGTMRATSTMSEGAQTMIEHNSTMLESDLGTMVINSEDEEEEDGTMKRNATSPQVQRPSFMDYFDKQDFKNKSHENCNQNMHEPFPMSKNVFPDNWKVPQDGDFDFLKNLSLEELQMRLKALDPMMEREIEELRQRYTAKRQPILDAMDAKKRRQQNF
ASSAY_PROCEDURE: DSF 100 kinase selectivity screen;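 note: compound tested at 20 µM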
Assay type: binding
TEST_PARAMETERS: Protein STK3; DSF; average of three replicates
OUTCOME_MEASURE: dTm (K)

P = O=C(Nc1cccc(-c2c[nH]c3ncnc(N4CCOCC4)c23)c1)C1(C(=O)Nc2ccc(F)c(Cl)c2)CC1
Q = O=C(Nc1cccc(-c2c[nH]c3ncnc(N4CCOCC4)c23)c1)C1(C(=O)Nc2cccc3c2CCC3)CC1
**Query** In terms of reported dTm, does P or Q have the smaller number? Pick one and reply with its label.
**Result** Q
(Q: 4.65 K, P: 8.55 K)

1 = O=C(Nc1cccc(-c2c[nH]c3ncnc(N4CCOCC4)c23)c1)C1(C(=O)Nc2ccc(F)cc2F)CC1
2 = COc1cc(S(C)(=O)=O)ccc1Nc1nc(N(C)C)c2c(Cl)c[nH]c2n1
3 = CC(C)(C)c1cc(NC(=O)Nc2cccc(-c3c[nH]c4ncnc(N5CCOCC5)c34)c2)n(-c2ccc3ncccc3c2)n1
**Query** Order the records so the highest dTm appears first and the lowest last. # respond with the labels, arranged in the requested order
**Result** 3, 1, 2

a = CCc1ccc(NC(=O)C2(C(=O)Nc3cccc(-c4c[nH]c5ncnc(N6CCOCC6)c45)c3)CC2)cc1
b = O=C(Nc1cccc(-c2c[nH]c3ncnc(N4CCOCC4)c23)c1)C1(C(=O)Nc2cc(Br)c(F)cc2F)CC1
c = COc1cc(C(=O)N2CCOCC2)c(F)cc1Nc1nc(N(C)C)c2c(Cl)c[nH]c2n1
**Query** List the 3 entries from lowest dTm to highest dTm value. Response field: labels, in requested order.
**Result** c, b, a

P = O=C(Nc1cccc(-c2c[nH]c3ncnc(N4CCOCC4)c23)c1)C1(C(=O)Nc2ccc(F)c(F)c2)CC1
Q = Cc1ccc(-n2nc(C(C)(C)C)cc2NC(=O)Nc2cccc(-c3c[nH]c4nc(Cl)nc(N5CCOCC5)c34)c2)cc1
R = CCNc1nc(Nc2cc(F)c(C(=O)N3CCOCC3)cc2OC)ncc1C(F)(F)F
**Query** Order the records so the highest dTm appears first and the lowest last. Quick reminder: the answer is the labels in the order asked.
**Result** P, Q, R
